Each recorded value in this set is attributed to ChEMBL document CHEMBL4004877.

assay-text: Cytotoxicity against LPS-stimulated mouse RAW264.7 cells assessed as cell viability at 2.5 ug/ml after 24 hrs by MTT assay relative to control
Format: cell-based
setup-conditions: LPS-stimulated RAW264.7 cells, read-out: Activity
viability at 24 h, 2.5 ug/ml strictly less than 90% = condition met. Otherwise condition not met.

Worked examples, 3 compounds total:
COc1ccc(CCC(=O)c2cccc(O)c2)cc1 condition not met
COc1cc(C(=O)CCc2cccc(OC)c2OC)ccc1O condition not met
COc1ccc(C(=O)/C=C/c2cccc(OC)c2OC)c(O)c1 condition met

is_below(viability at 24 h, 2.5 ug/ml, 90%) for COc1ccc(C(=O)CCc2ccc(OC)c(OC)c2OC)c(O)c1 ? condition not met

Consider the compound COc1cc(C(=O)/C=C/c2cccc(OC)c2OC)ccc1O . Is its viability at 24 h, 2.5 ug/ml strictly less than 90%? condition not met

----------
System: RAW264.7
assay-text: Antiinflammatory activity in mouse RAW264.7 cells assessed as inhibition of LPS induced iNOS-dependent nitric oxide production at 5 ug/ml after 24 hrs by Griess assay relative to control
Type: functional
setup-conditions: RAW264.7, 24 h
outcome-measure: inhibition at 5 µg/mL (%)
Numbers only, in %.

Below, 4 compounds whose answers are already recorded.
COc1ccc(/C=C/C(=O)c2ccc(OC)c(OC)c2)cc1OC 2
COc1ccc(CCCc2cccc(O)c2)c(OC)c1 24.6
COc1ccc(C(=O)CCc2cccc(OC)c2OC)c(O)c1 5.4
COc1ccc(C(=O)/C=C/c2ccc3c(c2)OCO3)c(O)c1 3

For each entry beneath this line, provide reported inhibition at 5 µg/mL.
1. COc1ccc(CCCc2cccc(OC)c2OC)c(O)c1
2. COc1ccc(/C=C/C(=O)c2ccc(O)c(OC)c2)cc1
3. COc1ccc(CCC(=O)c2ccc(O)c(OC)c2)cc1
4. COc1cccc(CCCc2cccc(O)c2)c1OC

1. 30.7
2. 51.7
3. 26.1
4. 18.3

I'm hoping you can list inhibition at 5 µg/mL for every compound here, please.
1. COc1ccc(OC)c(CCCc2cccc(O)c2)c1
2. COc1ccc(CCCc2cccc(O)c2)cc1OC

1. 36.8
2. 15.4

Quick request: inhibition at 5 µg/mL for each listed item, please.
1. COc1ccc(/C=C/C(=O)c2cccc(O)c2)c(OC)c1
2. COc1cccc(CCC(=O)c2cccc(O)c2)c1OC
3. O=C(/C=C/c1ccc2c(c1)OCO2)c1ccc(O)cc1
4. COc1ccc(/C=C/C(=O)c2ccc(OC)c(OC)c2)cc1
5. Oc1ccc(CCCc2ccc3c(c2)OCO3)cc1
6. COc1ccc(C(=O)CCc2ccc(OC)c(OC)c2OC)c(O)c1
7. COc1ccc(CCC(=O)c2ccc(OC)c(OC)c2)cc1OC

1. 9
2. 25
3. 14.1
4. 52.1
5. 48.9
6. 7.5
7. 13.8

----------
Please respond with reported IC50 for every item in the list.
Tested on: RAW264.7
assay-text: Antiinflammatory activity in mouse RAW264.7 cells assessed as inhibition of LPS induced iNOS-dependent nitric oxide production after 24 hrs by Griess assay
Format: functional, cell-based
setup-conditions: RAW264.7, 24 h
Numbers only, in µg/mL.

COc1ccc(CCC(=O)c2ccc(O)c(OC)c2)cc1 9.81
COc1ccc(/C=C/C(=O)c2cccc(O)c2)c(OC)c1 9.42
COc1cc(CCC(=O)c2cccc(O)c2)ccc1O 9.78
COc1ccc(CCCc2cccc(O)c2)cc1 7.72
COc1ccc(C(=O)/C=C/c2cccc(OC)c2OC)c(O)c1 2.35
COc1ccc(CCCc2ccc(O)c(OC)c2)cc1 5.08

Hi, could you look up IC50 for each item in my list?
1. COc1ccc(/C=C/C(=O)c2ccc(O)c(OC)c2)cc1
2. COc1ccc(CCCc2ccc(OC)cc2O)cc1
3. COc1ccc(CCCc2ccc(OC)c(OC)c2)cc1O
4. COc1cccc(/C=C/C(=O)c2cccc(O)c2)c1OC
5. COc1ccc(CCC(=O)c2ccc(OC)c(OC)c2)cc1
6. COc1ccc(C(=O)/C=C/c2ccc(OC)c(OC)c2)c(O)c1
7. COc1cc(CCCc2cccc(O)c2)ccc1O
8. COc1ccc(CCCc2ccc(OC)c(OC)c2)cc1

1. 4.88
2. 6.37
3. 3.92
4. 4.83
5. 4.35
6. 5.05
7. 7.13
8. 8.69

----------
Please go through the items and note down their inhibition at 5 µg/mL.
Tested on: RAW264.7
assay-text: Antiinflammatory activity in mouse RAW264.7 cells assessed as inhibition of LPS induced iNOS-dependent nitric oxide production at 5 ug/ml after 24 hrs by Griess assay relative to control
Assay type: functional
setup-conditions: RAW264.7, 24 h
One number for each entry, in %.

// solved cases for inhibition at 5 µg/mL follow
COc1cccc(/C=C/C(=O)c2cccc(O)c2)c1OC 52.4
COc1ccc(CCCc2ccc(OC)c(OC)c2)cc1 28.6
COc1ccc(C(=O)CCc2cc(OC)ccc2OC)c(O)c1 11.9
COc1ccc(CCCc2ccc(OC)cc2O)cc1 37.8
COc1ccc(CCC(=O)c2ccc(OC)cc2O)cc1 14.5
COc1ccc(CCC(=O)c2cccc(O)c2)cc1 20.1

# map each compound to its inhibition at 5 µg/mL
1. COc1ccc(OC)c(CCC(=O)c2cccc(O)c2)c1
2. COc1ccc(CCC(=O)c2ccc(OC)c(OC)c2)cc1
3. COc1ccc(CCCc2ccc(OC)c(OC)c2)c(O)c1

[22.3, 54.4, 69.2]

Batch request: inhibition at 5 µg/mL per item, same order as input.
1. COc1ccc(C(=O)CCc2ccc3c(c2)OCO3)c(OC)c1
2. COc1cc(CCCc2ccc3c(c2)OCO3)ccc1O
3. COc1ccc(CCCc2ccc(O)c(OC)c2)cc1

[6.6, 52.7, 49]

// query inhibition at 5 µg/mL value for entry COc1cc(/C=C/C(=O)c2cccc(O)c2)ccc1O 3.2

----------
Tested on: RAW264.7
assay-text: Antiinflammatory activity in mouse RAW264.7 cells assessed as inhibition of LPS induced iNOS-dependent nitric oxide production at 1.25 ug/ml after 24 hrs by Griess assay relative to control
Format: functional
setup-conditions: RAW264.7, 24 h
Please use 1 (yes) whenever inhibition at 1.25 µg/mL is not below 5%, and 0 (no) whenever it is.

COc1cccc(CCCc2cccc(O)c2)c1OC 1 (yes)
COc1ccc(CCC(=O)c2ccc(O)c(OC)c2)cc1 0 (no)
COc1ccc(CCCc2cc(OC)ccc2OC)c(O)c1 1 (yes)
COc1ccc(OC)c(CCC(=O)c2cccc(O)c2)c1 1 (yes)
COc1ccc(C(=O)/C=C/c2ccc3c(c2)OCO3)c(O)c1 1 (yes)

For this compound, is measured inhibition at 1.25 µg/mL 5% or higher? COc1ccc(C(=O)/C=C/c2ccc3c(c2)OCO3)c(OC)c1 0 (no)

Reported inhibition at 1.25 µg/mL at or above 5%? COc1ccc(C(=O)/C=C/c2ccc(OC)cc2OC)c(O)c1 0 (no)

hey, is inhibition at 1.25 µg/mL for this one >= 5%? COc1ccc(CCCc2ccc(O)c(OC)c2)cc1 1 (yes)

hey, is inhibition at 1.25 µg/mL for this one >= 5%? COc1cc(C(=O)/C=C/c2cccc(OC)c2OC)ccc1O 0 (no)

I'd appreciate it if you could say whether COc1ccc(CCC(=O)c2ccc(OC)c(OC)c2)cc1OC has inhibition at 1.25 µg/mL at least equal to 5%. 1 (yes)

Does inhibition at 1.25 µg/mL meet or surpass 5% for COc1ccc(CCCc2ccc(OC)c(OC)c2)c(O)c1 ? 1 (yes)

----------
Kindly supply the reported viability at 24 h, 2.5 ug/ml values for the records listed here.
assay-text: Cytotoxicity against LPS-stimulated mouse RAW264.7 cells assessed as cell viability at 2.5 ug/ml after 24 hrs by MTT assay relative to control
Type: cell-based
setup-conditions: LPS-stimulated RAW264.7 cells, read-out: Activity
Answers are plain numbers, in %.

Go through the items and report each one's viability at 24 h, 2.5 ug/ml.
1. COc1ccc(CCCc2ccc(OC)c(OC)c2)cc1O
2. COc1ccc(CCCc2cc(OC)ccc2OC)c(O)c1
3. COc1ccc(CCC(=O)c2cccc(O)c2)cc1OC
4. COc1ccc(CCCc2ccc(OC)c(OC)c2)cc1
5. COc1ccc(/C=C/C(=O)c2cccc(O)c2)c(OC)c1
6. COc1ccc(/C=C/C(=O)c2cccc(O)c2)cc1
7. COc1cccc(CCCc2cccc(O)c2)c1OC

95.5
102
98.9
100
74
99.1
97.4

----------
Record form. Attribute: viability at 24 h, 5 ug/ml. Fill in for each entry.
assay-text: Cytotoxicity against LPS-stimulated mouse RAW264.7 cells assessed as cell viability at 5 ug/ml after 24 hrs by MTT assay relative to control
Format: cell-based
setup-conditions: LPS-stimulated RAW264.7 cells, read-out: Activity
Numbers only, in %.

# batch size: 3; output viability at 24 h, 5 ug/ml per entry
1. COc1cc(C(=O)CCc2cccc(OC)c2OC)ccc1O
2. COc1ccc(CCC(=O)c2ccc(O)c(OC)c2)cc1
3. COc1ccc(CCC(=O)c2ccc(OC)cc2O)cc1

91.1
89.8
92.3
